Recorded values, source PubChem BioAssay (NCI).

measurement_protocol: NCI Yeast Anticancer Drug Screen. Data for the cln2 rad14 strain (AID 165);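 note: 0% = growth equal to vehicle treated cultures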
reported_conditions: S. cerevisiae cln2 rad14 strain, active compounds read high; at 50.0 µM unless noted
Compounds without any hit were thinned out: in the full panel of roughly 79,000, 15% have a hit.
measured_endpoint: growth inhibition (%)
A number alone suffices; assume %.

# input For CCCNCCC , what is its reported growth inhibition?
# output -12.4

###

Here the recorded growth inhibition is given for each entry.
measurement_protocol: NCI Yeast Anticancer Drug Screen. Data for the mec2-1 strain (AID 157)
reported_conditions: S. cerevisiae mec2-1 strain, active compounds read high; at 50.0 µM unless noted
This is part of a sample that, as a whole, favours compounds with a hit. Of some 79,000 tested, about 15% had one in any assay. Activity calls are given as the source filed them. No stated cut-off is given here; in the data, active means growth inhibition above about 70%; inactive means the rest.

The cases that follow already have their growth inhibition on record.
compound: COC(=O)C1(C(C)C(=O)c2ccccc2)NC(=S)NC(=O)C1C#N (configuration not stated)
result: -16.7% (inactive)
--
compound: BrC1CC2CCC1CC2 (configuration not stated)
result: -6.45% (inactive)
--
compound: O=C(c1ccccc1)C(F)S(=O)(=O)O (configuration not stated)
result: -7.75% (inactive)
--
compound: COc1ccc2c(c1)-c1c(ccc(OC)c1O)CC(c1ccccc1)[N+](C)(C)CC2 (configuration not stated)
result: 10.7% (inactive)
--
compound: CCCCCCCCN(CCCCCCCC)CC(O)c1ccnc2c(Cl)cc(Cl)cc12 (configuration not stated)
result: 15.2% (inactive)

# input Using the record for CS(=O)(=O)OCCN(CCOS(C)(=O)=O)c1ccc([N+](=O)[O-])cc1[N+](=O)[O-] , report its growth inhibition.
# output -5.8% (inactive)

# input Item under review: COc1cc(O)c(C/C=C/c2ccccc2)cc1O . Reported growth inhibition?
# output 21.4% (inactive)

###

measurement_protocol: NCI Yeast Anticancer Drug Screen. Data for the mec2-1 strain (AID 157)
reported_conditions: S. cerevisiae mec2-1 strain, active compounds read high; at 50.0 µM unless noted
This is part of a sample that, as a whole, favours compounds with a hit. Of some 79,000 tested, about 15% had one in any assay.
measured_endpoint: growth inhibition (%)
Only the number, expressed in %, is required.

compound: Cc1ccc(C2=Nc3ccccc3NC(=O)C2)cc1
uom: %
growth inhibition: -20.1
//
compound: Fc1ccc2c(c1)SC1Oc3ccccc3-c3c1c-2nn3-c1ccccc1 (stereo unspecified)
uom: %
growth inhibition: -7.45

# input Need growth inhibition, item CC(C)N(CCO)CC(O)Cn1cnc2ncnc(N)c21 (stereo unspecified)
# output -10.8

###

measurement_protocol: NCI Yeast Anticancer Drug Screen. Data for the rad50 strain (AID 155);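 note: 0% = growth of vehicle-only cultures of the same strain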
reported_conditions: S. cerevisiae rad50 strain growth inhibition, active compounds read high; at 50.0 µM unless noted
The panel holds about 79,000 compounds, 15% with a hit somewhere; the sample as a whole holds those more often.
measured_endpoint: growth inhibition (%)
Please give a number only; it is taken to be in %.

Solved cases below.
molecule: O=[N+]([O-])c1cccc(/C=N/Nc2ccc(S(=O)(=O)O)cc2)c1
quantitative_readout: 18.6

molecule: CC1(C)C2CC(C(=O)O)C1C2 (centres undefined)
quantitative_readout: 2.75

molecule: C[N+]1(C2C=CCC(c3ccccc3)C2[N+](=O)[O-])CCCC1 (centres undefined)
quantitative_readout: 27.2

molecule: CNC(=S)C#N
quantitative_readout: -21.8

molecule: Cc1c2cc[n+](C)cc2c(C)c2c1oc1ccccc12
quantitative_readout: 82.5

# input Report growth inhibition for CC(C)OC(=O)C(O)c1ccccc1 (centres undefined) please.
# output 18.2

# input Can you share its growth inhibition? I mean this molecule: Cc1cc(Nc2nnc(-c3cccnc3Oc3ccccc3)s2)ccc1Br
# output 1.25

# input Item CCC1CC2CC(c3cc4c(cc3OC)N(C)C3C(O)(C(=O)OC)C(OC(C)=O)C5(CC)C=CCN6CCC43C65)c3[nH]c4ccccc4c3CCN(C1)C2 (centres undefined) has what recorded growth inhibition?
# output 17.9

# input Would you kindly share the measured growth inhibition for Cn1c(=O)[nH]c(=O)c2nc(-c3ccccc3)cnc21 ?
# output -11.9

# input // returns reported growth inhibition for input CC(C)(O)C(O)c1ccccc1 (centres undefined)
# output 10.9

# input growth inhibition lookup needed for S=c1nc2ccccn2c(=S)n1-c1ccccn1 , thanks.
# output 33.6

# input For the molecule shown here, CN(C(=O)c1cccc([N+](=O)[O-])c1)C1CCCCC1 , give the reported growth inhibition.
# output 2.6

# input Requested read-out: growth inhibition. Entry: COc1ccc(C(=O)C(=O)c2ccccc2Cl)cc1
# output 11.4

# input # get_value(readout='growth inhibition', item= Cc1ccc(C2=CC=C(c3ccccc3)C2)cc1 )
# output -22.1

# input Form field: reported growth inhibition of COC(=O)C(C)(N=Cc1ccccc1)c1ccccc1 (centres undefined)
# output -34.2

# input Which growth inhibition reading was recorded for the molecule CC(C)OC(=O)CCC(N)C(=O)O (centres undefined) ?
# output 2.95

# input Please give the measured growth inhibition for this molecule: CC(C)CC(NC=O)C(=O)O (centres undefined)
# output 11.2

# input Tell me the measured growth inhibition of CC(C)(O)CCO , please.
# output -38.4

# input Please report the recorded growth inhibition for O=C(N[C@@H](CSSC[C@H](NC(=O)OCc1ccccc1)C(=O)O)C(=O)O)OCc1ccccc1 .
# output 15.6

# input Please look up its growth inhibition: ClCc1ccc(OCc2ccccc2)cc1
# output -2.85

# input molecule: O/N=C1\c2ccccc2-c2cccc(Br)c21 ; wanted: its growth inhibition
# output 0.25

# input Fill blank: measured growth inhibition of the molecule Nc1ncnc2c1c(-c1nnc(-c3ccccc3)c(-c3ccccc3)n1)cn2C1OC(CO)C(O)C1O (centres undefined) is ____.
# output 44.1

# input What value of growth inhibition has been recorded for this entry: CN(C)c1ccc(/C=C/C(=O)N[C@@H]2C(=O)N3[C@@H]2SC(C)(C)[C@@H]3C(=O)O)cc1
# output -10.3

# input For CC/C=C/C(=O)CC(O)(C(F)(F)F)C(F)(F)F , what is its reported growth inhibition?
# output -30.9

###

measurement_protocol: NCI Yeast Anticancer Drug Screen. Data for the mec2-1 strain (AID 157)
reported_conditions: S. cerevisiae mec2-1 strain, active compounds read high; at 50.0 µM unless noted
This is part of a sample that, as a whole, favours compounds with a hit. Of some 79,000 tested, about 15% had one in any assay.
measured_endpoint: growth inhibition (%)
Write down the numeric answer in % and omit the unit.

# input Which growth inhibition value is on record for CC(CCC#CC(=O)O)OC1CCCCO1 (configuration not stated) ?
# output -33

# input State the recorded growth inhibition for this entry: CCCCN1CCC(N)=NC1=O
# output -24.9

# input Which value of growth inhibition has been reported for O=C(CC1C(=O)Nc2ccccc2S1=O)Nc1cc(Cl)ccc1Cl (configuration not stated) in the records?
# output -24.2

# input Query: growth inhibition; subject: CCCCCCCCCCCCCCCCC(C#N)C(=O)O (configuration not stated)
# output 0.95

###

growth inhibition overview
measurement_protocol: NCI Yeast Anticancer Drug Screen. Data for the sgs1 mgt1 strain (AID 161);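 note: 0% = growth of cultures given vehicle only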
reported_conditions: S. cerevisiae sgs1 mgt1 strain, active compounds read high; at 50.0 µM unless noted
This is part of a sample that, as a whole, favours compounds with a hit. Of some 79,000 tested, about 15% had one in any assay.
Your answer should be a plain number; it is taken to be in %.

Field: example entries. Status: answers known.
molecule: COCCC(=O)OCCC(C)OC (stereo unspecified)
growth inhibition [%]: 3.65

molecule: CC(CCO)CCCO (stereo unspecified)
growth inhibition [%]: 7.35

molecule: C#CC(C)(O)CCC(C)C (stereo unspecified)
growth inhibition [%]: -3.3

molecule: O=C(Nc1ccccc1)C12CCC(CC1Br)C2 (stereo unspecified)
growth inhibition [%]: -9.7

molecule: CC1OC(O[C@H]2CC[C@]3(C)[C@H]4CC=C5[C@@H]6[C@@H](C)[C@H](C)CC[C@]6(C(=O)OC6OC(CO)C(O)C(O)C6O)CC[C@@]5(C(=O)O)[C@]4(C)CC[C@H]3C2(C)C)C(O)C(O)C1O (stereo partly specified)
growth inhibition [%]: -31.6

# input Entry under review: Cc1cc(C)c2c(=O)n(-c3ccccc3C)c(=S)n(-c3ccccc3C)c2n1 . Reported growth inhibition?
# output 2.25

###

measurement_protocol: NCI Yeast Anticancer Drug Screen. Data for the mec2-1 strain (AID 157)
reported_conditions: S. cerevisiae mec2-1 strain, active compounds read high; at 50.0 µM unless noted
This is part of a sample that, as a whole, favours compounds with a hit. Of some 79,000 tested, about 15% had one in any assay.
// reported growth inhibition for each item listed
All answers are understood in %, so give the number only.

These recorded examples may help you get a feel for the data.
molecule: CCSC1C(O)C(CO)OC1n1cnc2c(=S)nc[nH]c21 (stereo not given)
growth inhibition / %: -28.7
//
molecule: C=CCC(Cc1ccccc1)C(N)=O (stereo not given)
growth inhibition / %: -51.7
//
molecule: CC(C)=C1C2C(C13C(=O)OC(C)(C)OC3=O)C2(C)C (stereo not given)
growth inhibition / %: -16.9
//
molecule: O=C(Nc1ccc(Br)cc1)C(Br)C(Br)c1ccccc1 (stereo not given)
growth inhibition / %: 97.7

# input Could you share which growth inhibition value was measured for CC(=O)Nc1ccc(NC(=O)NCCCCCCNC(=O)Nc2ccc(NC(C)=O)cc2)cc1 ?
# output 2.7

# input Which growth inhibition value belongs to OCCN(CCO)c1ncnc2c1sc(=S)n2-c1ccccc1 ?
# output -32.3

# input Sample CCCC(=O)OC1CC(n2cc(F)c(=O)[nH]c2=O)OC1CO (stereo not given) — what was its growth inhibition?
# output 0.45

# input Requested field: growth inhibition. Item: COC(=O)/C=C(\C(=O)OC)N1CCCCC1
# output -3.8

# input Data request, read-out growth inhibition, for COC(=O)OCCOC(=O)OC
# output 1.5

# input GET /values?readout=growth inhibition&item= COc1cc(C)cc(C(=O)O)c1
# output -3.5

# input Entry CN(C)N=Nc1ccc(S(C)(=O)=O)cc1 : reported growth inhibition = ?
# output 0.6

# input I would be grateful if you could share the reported growth inhibition for Cn1cnc([N+](=O)[O-])c1Sc1nc2cc(Cl)c(F)cc2[nH]1 .
# output -27.9

# input Consider the molecule COc1ccc(N2CC[N+](c3ccc(N(C)C)cc3)=C2C2=[N+](c3ccc(N(C)C)cc3)CCN2c2ccc(OC)cc2)cc1 and give its measured growth inhibition.
# output -6.8

# input So what does the record say about growth inhibition for CCOP(=O)(OCC)/C(=C\n1c(=S)[nH]c2cc(C)ccc21)C(=O)OC ?
# output -27.7
